This collection of values is drawn from patent US7851501B2.

- target or test system: human E-Selectin-IgG-chimera (Homo sapiens)
- Sequence (P16581 with tags, fused parts or gaps limits assumed): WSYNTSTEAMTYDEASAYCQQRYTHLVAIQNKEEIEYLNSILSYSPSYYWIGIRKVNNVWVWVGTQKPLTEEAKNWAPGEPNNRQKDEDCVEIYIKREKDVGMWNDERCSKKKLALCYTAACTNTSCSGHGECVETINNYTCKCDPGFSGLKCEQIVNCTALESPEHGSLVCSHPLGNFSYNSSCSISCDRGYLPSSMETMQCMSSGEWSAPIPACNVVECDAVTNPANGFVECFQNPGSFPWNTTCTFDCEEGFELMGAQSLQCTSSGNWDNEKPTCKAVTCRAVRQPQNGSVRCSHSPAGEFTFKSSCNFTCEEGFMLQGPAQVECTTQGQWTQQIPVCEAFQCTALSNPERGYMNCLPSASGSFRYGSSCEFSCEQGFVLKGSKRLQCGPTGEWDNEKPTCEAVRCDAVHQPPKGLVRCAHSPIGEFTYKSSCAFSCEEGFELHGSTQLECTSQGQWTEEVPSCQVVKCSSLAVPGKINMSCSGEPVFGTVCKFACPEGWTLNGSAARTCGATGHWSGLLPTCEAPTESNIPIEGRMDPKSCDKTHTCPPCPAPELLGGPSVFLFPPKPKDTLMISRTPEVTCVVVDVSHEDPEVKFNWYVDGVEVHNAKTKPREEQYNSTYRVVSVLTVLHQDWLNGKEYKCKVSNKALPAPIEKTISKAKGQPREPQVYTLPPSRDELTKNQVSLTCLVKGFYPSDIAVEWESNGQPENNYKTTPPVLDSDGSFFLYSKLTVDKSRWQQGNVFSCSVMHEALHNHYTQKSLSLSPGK
- protocol: Sialyl Lewis x Tyrosine Sulfate Assay (sLex TSA), E-selectin
- experimental parameters: inhibition of binding of sLex-tyrosine sulfate polyacrylamide ligand complex

smiles structure: O=C(Nc1ccccc1-c1ccc(C(=O)O)s1)c1cccc(-c2cc(O)c(O)cc2[N+](=O)[O-])c1
IC50, µM: 272
--
smiles structure: O=C(O)Cc1ccc(-c2ccccc2NC(=O)c2cccc(-c3cc([N+](=O)[O-])cc(O)c3O)c2)s1
IC50, µM: 308

* * *

- target or test system: human P-Selectin-IgG-chimera (Homo sapiens)
- Sequence (P16109 with tags, fused parts or gaps limits assumed): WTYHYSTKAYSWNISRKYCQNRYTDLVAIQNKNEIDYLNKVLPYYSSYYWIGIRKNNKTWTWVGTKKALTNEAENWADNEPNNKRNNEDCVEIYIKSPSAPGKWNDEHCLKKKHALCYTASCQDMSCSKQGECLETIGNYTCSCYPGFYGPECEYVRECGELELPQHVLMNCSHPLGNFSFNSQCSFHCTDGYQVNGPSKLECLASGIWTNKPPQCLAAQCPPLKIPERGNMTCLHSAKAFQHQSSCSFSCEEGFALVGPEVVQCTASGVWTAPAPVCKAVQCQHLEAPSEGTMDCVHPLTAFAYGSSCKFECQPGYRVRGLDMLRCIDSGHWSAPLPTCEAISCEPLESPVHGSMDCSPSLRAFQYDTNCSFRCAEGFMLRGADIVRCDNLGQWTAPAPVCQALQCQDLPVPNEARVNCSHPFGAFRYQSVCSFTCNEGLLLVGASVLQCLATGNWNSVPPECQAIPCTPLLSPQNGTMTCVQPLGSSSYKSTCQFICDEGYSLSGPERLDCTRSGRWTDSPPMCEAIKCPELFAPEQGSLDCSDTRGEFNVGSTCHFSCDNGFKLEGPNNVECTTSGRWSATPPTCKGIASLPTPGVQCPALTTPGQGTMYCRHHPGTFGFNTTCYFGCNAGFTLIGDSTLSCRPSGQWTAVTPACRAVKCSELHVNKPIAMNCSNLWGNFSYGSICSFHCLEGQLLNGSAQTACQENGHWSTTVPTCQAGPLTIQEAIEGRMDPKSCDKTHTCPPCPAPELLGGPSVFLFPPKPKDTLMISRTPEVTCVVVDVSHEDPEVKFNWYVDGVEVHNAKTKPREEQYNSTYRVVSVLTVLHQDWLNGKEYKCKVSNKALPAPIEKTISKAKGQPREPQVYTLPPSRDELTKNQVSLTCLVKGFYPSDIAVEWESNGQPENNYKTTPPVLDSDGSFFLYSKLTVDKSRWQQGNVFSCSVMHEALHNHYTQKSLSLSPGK
- protocol: Sialyl Lewis x Tyrosine Sulfate Assay (sLex TSA), P-selectin
- experimental parameters: inhibition of binding of sLex-tyrosine sulfate polyacrylamide ligand complex
- Experimental: Compounds of the present invention are assayed on a molecular level for their ability to inhibit the binding of P-, L-, or E-selectin chimeric molecules to sLe^x and tyrosinesulfate residues linked to a polymeric matrix as a PSGL-1 substitute. Selected IC50-values are determined. Microtiter plates are coated overnight in carbonate buffer pH9.6 with goat anti human Fc mAB (10 μg/ml). […]
pIC50: −log10 of the molar value.
Entries and their pIC50

smiles structure: O=C(Nc1ccccc1-c1ccc(C(=O)O)s1)c1cccc(-c2cc(O)c(O)cc2[N+](=O)[O-])c1
pIC50: 4.96

smiles structure: O=C(O)Cc1ccc(-c2ccccc2NC(=O)c2cccc(-c3cc(O)c(O)cc3[N+](=O)[O-])c2)s1
pIC50: 4.72

smiles structure: O=C(O)Cc1ccc(-c2ccccc2NC(=O)c2cccc(-c3cc([N+](=O)[O-])cc(O)c3O)c2)s1
pIC50: 5.28

smiles structure: O=C(Nc1ccccc1-c1ccc(C(=O)O)s1)c1cccc(-c2cc([N+](=O)[O-])cc(O)c2O)c1
pIC50: 5.34
